- measuredOn: Glucocorticoid receptor (Homo sapiens) (UniProt P04150)
- Sequence (P04150 whole entry, looked up): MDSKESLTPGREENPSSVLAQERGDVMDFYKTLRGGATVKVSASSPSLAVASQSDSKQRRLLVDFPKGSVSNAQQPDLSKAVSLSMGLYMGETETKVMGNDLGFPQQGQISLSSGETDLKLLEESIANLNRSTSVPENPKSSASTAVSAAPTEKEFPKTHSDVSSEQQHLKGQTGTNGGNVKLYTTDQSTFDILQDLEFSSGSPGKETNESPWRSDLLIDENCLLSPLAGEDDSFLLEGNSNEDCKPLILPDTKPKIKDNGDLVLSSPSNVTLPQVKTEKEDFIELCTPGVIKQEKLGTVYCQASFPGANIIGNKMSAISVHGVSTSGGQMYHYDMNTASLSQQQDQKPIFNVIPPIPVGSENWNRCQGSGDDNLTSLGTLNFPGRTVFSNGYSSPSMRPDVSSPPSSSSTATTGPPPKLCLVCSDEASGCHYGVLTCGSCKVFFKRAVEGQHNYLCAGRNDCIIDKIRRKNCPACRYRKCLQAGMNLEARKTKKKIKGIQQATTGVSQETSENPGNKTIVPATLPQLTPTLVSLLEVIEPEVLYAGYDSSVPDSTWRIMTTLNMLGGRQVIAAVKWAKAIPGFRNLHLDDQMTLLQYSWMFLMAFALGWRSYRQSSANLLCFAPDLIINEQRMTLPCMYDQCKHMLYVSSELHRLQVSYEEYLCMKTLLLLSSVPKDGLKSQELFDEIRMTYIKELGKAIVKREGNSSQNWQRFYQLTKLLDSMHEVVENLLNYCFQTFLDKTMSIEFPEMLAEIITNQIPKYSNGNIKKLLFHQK
- assayComment: GR-EFC Redistribution (AID 451); further: potency means the concentration at half of the fitted maximal effect
- cond: CHO-K1 GR-EFC translocation, beta-gal luminescence, 2 h
- Experimental: NIH Molecular Libraries Screening Centers Network [MLSCN] NIH Chemical Genomics Center [NCGC] The glucocorticoid receptor (GR) is a cytoplasmic receptor that belongs to the nuclear receptor family of ligand-dependent transcription factors. […] GR-translocation was measured beta-gal enzyme activity using the PathHunter Detection Kit containing cell membrane permeablizing reagent and beta-gal substrate (DiscoveRx, Fremont, CA). […] Read plate in luminescence mode in ViewLux plate reader (PerkinElmer) […]
The source made the active and inactive calls. The call rests on the fitted dose curve.
I'd be grateful if you could share measured Potency for these entries.

Kindly note: Glucocorticoid receptor (Homo sapiens) (UniProt P04150), CN(Cc1cc(C(C)(C)C)cc(Br)c1O)Cc1cc(C(C)(C)C)cc(Br)c1O , Potency value reported: > 9.22 µM (inactive)

Query CN(C)Cc1ccc(C(C)(C)C)cc1-c1cc(C(C)(C)C)ccc1CN(C)C on Glucocorticoid receptor (Homo sapiens) (UniProt P04150); Potency returned: > 9.22 µM (inactive)

Glucocorticoid receptor (Homo sapiens) (UniProt P04150) Potency of Nc1ccn([C@H]2O[C@H](CO)[C@@H]3[O][Sn]([c]4ccccc4)([c]4ccccc4)[O][C@H]32)c(=O)n1 is > 9.22 µM (inactive)

Record O=C(O)CSc1n[nH]c(=O)[nH]c1=O has Glucocorticoid receptor (Homo sapiens) (UniProt P04150) Potency equal to > 9.22 µM (inactive)

Case N#C[C@H](c1ccccc1)N1CCCN([C@@H](C#N)c2ccccc2)C1c1ccccc1O (some centres not stated) , Glucocorticoid receptor (Homo sapiens) (UniProt P04150), Potency recorded as > 9.22 µM (inactive)

// Potency (Glucocorticoid receptor (Homo sapiens) (UniProt P04150)) for Oc1ccc([C@@H]2CNCc3sccc32)cc1O = > 46 µM (inactive)

Log: Glucocorticoid receptor (Homo sapiens) (UniProt P04150), compound c1ccc(-c2nnn(CCN3CCCCC3)n2)cc1 , Potency = > 9.22 µM (inactive)

Summary line: C[N+](C)([O-])Cc1cc(-c2ccccc2)ccc1O , Glucocorticoid receptor (Homo sapiens) (UniProt P04150), reported Potency = > 9.22 µM (inactive)

Record O=C(O)CNc1ccc(C(=O)O)cc1 / Glucocorticoid receptor (Homo sapiens) (UniProt P04150), Potency recorded as > 9.22 µM (inactive)

Kindly note: Glucocorticoid receptor (Homo sapiens) (UniProt P04150), O=C(O)Cc1c(O)ccc2ccccc12 , Potency value reported: > 9.22 µM (inactive)

Bench note, Glucocorticoid receptor (Homo sapiens) (UniProt P04150): entry N=C(N)SC(c1ccccc1)c1ccccc1 , its Potency = > 9.22 µM (inactive)

Considering O=C(O)/C(=C\c1ccncc1)c1cccc2ccccc12 , its Potency with Glucocorticoid receptor (Homo sapiens) (UniProt P04150) was recorded as > 9.22 µM (inactive)
